Provide the recorded Emax for the entries that follow.
# Tested on: ER/NF-κB
# measurement-protocol: ER/NF-κB luciferase reporter in Ad5-wt-ERα infected HAECT-1 cells
# Format: cell-based, human
# applied-conditions: Homo sapiens, HAECT1, IL-1β, read-out: ER/NFκB Efficacy (%)*
# Protocol: After four hours, cells were washed with EBM-BSA and incubated overnight in the same medium. […] ERα infected HAECT-1 cells or control cells were thawed, diluted 42× in warm EBM-BSA, plated into 96-well plates at 0.1 mL/well and incubated for 4 hours at 34° C. […] Luciferase was determined on a Wallac Victor^2 Luminometer (Gaithersburg, Md.) using 10 μL of lysate and mixing with 100 μL of Promega Luciferase Assay reagent. […]
Answers without a unit are incomplete; give the number and then its unit.

1) C[C@@H]1c2ccccc2-c2ccccc2N1S(=O)(=O)c1ccc(O)cc1 (single isomer, unassigned)
97%
2) CCC1c2ccccc2-c2cc(-c3ccccc3Cl)ccc2N1S(=O)(=O)c1ccc(O)c(C)c1 (centres unmarked)
89%
3) CCCCC1c2ccccc2-c2ccccc2N1S(=O)(=O)c1ccc(O)cc1 (centres unmarked)
7%
4) Cc1cc(S(=O)(=O)N2c3ccc(Br)cc3-c3ccccc3C2C)ccc1O (centres unmarked)
92%

Provide each entry's Emax from the list below.
1. CCC1c2ccccc2-c2cc(-c3cccc(Cl)c3)ccc2N1S(=O)(=O)c1ccc(O)cc1 (centres unmarked)
2. O=S(=O)(c1ccc(O)cc1)N1c2ccccc2-c2ccccc2[C@@H]1c1ccccc1 (single isomer, unassigned)
3. CCC1c2c(C)cccc2-c2ccccc2N1S(=O)(=O)c1ccc(O)cc1 (centres unmarked)
4. CC1c2ccccc2-c2ccccc2N1S(=O)(=O)c1ccc(O)cc1 (centres unmarked)

1: 79%; 2: 115%; 3: 99%; 4: 94%

Hi there! I need Emax for each item below, if you can.
1. CC1c2ccccc2-c2ccccc2N1S(=O)(=O)c1ccc(O)c(F)c1 (centres unmarked)
2. CC1c2ccc(O)cc2-c2ccccc2N1S(=O)(=O)c1ccc(O)cc1 (centres unmarked)
3. CCCCC1c2ccccc2-c2cc(Br)ccc2N1S(=O)(=O)c1ccc(O)cc1 (centres unmarked)

["100%", "60%", "89%"]

* * *

# Test system: ER/NF-κB
# measurement-protocol: ER/NF-κB luciferase reporter in Ad5-wt-ERα infected HAECT-1 cells
# Format: cell-based, human
# applied-conditions: Homo sapiens, HAECT1, IL-1β, read-out: ER/NFκB Efficacy (%)*
Decide using Emax alone. Strictly below 90%: MET. Equal to or above 90%: NOT MET.

1) CCC1c2ccccc2-c2cc(-c3ccc(O)cc3)ccc2N1S(=O)(=O)c1ccc(O)cc1 (centres unmarked)
MET

Answer whether the compound CCC1c2cc(F)ccc2-c2ccccc2N1S(=O)(=O)c1ccc(OC(=O)CC(C)(C)C)cc1 (centres unmarked) has Emax strictly less than 90%
MET

What do you get for "C[C@H]1c2cc(F)ccc2-c2ccccc2N1S(=O)(=O)c1ccc(O)cc1" ?
NOT MET

Now try CCC1c2cc(F)ccc2-c2cc(Br)ccc2N1S(=O)(=O)c1ccc(O)cc1 (centres unmarked) .
NOT MET

Please give the result for CCC1c2cc(F)ccc2-c2ccccc2N1S(=O)(=O)c1ccc(O)c(C)c1 (centres unmarked) too.
MET

Then CCC1c2ccccc2-c2cc(/C=C/c3ccccc3)ccc2N1S(=O)(=O)c1ccc(O)cc1 (centres unmarked) ?
NOT MET

Can you check CCC1c2cc(F)ccc2-c2cc(C)ccc2N1S(=O)(=O)c1ccc(O)cc1 (centres unmarked) next?
NOT MET
